Please respond with reported zone of inhibition, test strain H for every item in the list.
Test system: Erwinia chrysanthemi (ATCC 11663)
Test: Radial diffusion assay
Type: cell-based
Details: TCA precipitated culture supernatant, 100 x concentrated; 10 units = 1 mm diameter clear zone around the 3 mm sample well
Procedure: The supernatants described above in Example 4 were analyzed in a radial diffusion assay following a previously published protocol for detection of antimicrobial activity (Lehrer et al., (1991) Ultra sensitive assays for endogenous antimicrobial polypeptides J Immunol Methods 137: 167-173). […] The bacterial growth inhibition is seen as clearing zones, which are measured to the nearest 0.1 mm and subtracted the diameter of the hole. […]
Output spec: scalar in units, unitless text.

Value of measured zone of inhibition, test strain H for the entry Marinasin 5: Arenicola marina antimicrobial polypeptide, amino acids 1 to 49 of SEQ ID NO: 24, expressed in Aspergillus oryzae (MKFLLPLMVVMAFAAVAMATADTEPVEREEGVFIMLPFVEDDMLEKPIL; listed as Arenicola marina) : 26

Value of measured zone of inhibition, test strain H for the entry Marinasin 1B: Arenicola marina antimicrobial polypeptide, amino acids 1 to 49 of SEQ ID NO: 8, expressed in Aspergillus oryzae (MKFFLPIMIALAFAAVAMATADTEPVEPEEELSIMLPFVEDDLLEKPIP; listed as Arenicola marina) : 25

Value of measured zone of inhibition, test strain H for the entry Marinasin 2A: Arenicola marina antimicrobial polypeptide, amino acids 1 to 46 of SEQ ID NO: 12, expressed in Aspergillus oryzae (MNQITLLMLLVAVAVMATVTGQSLDDESDVENVSQPEQRGWCWQWT; listed as Arenicola marina) : 40

Value of measured zone of inhibition, test strain H for the entry Marinasin 4: Arenicola marina antimicrobial polypeptide, amino acids 1 to 45 of SEQ ID NO: 22, expressed in Aspergillus oryzae (MKPIILLMLLVAVVVMATVTAEPLDEESDVEIVSQPEQRIPCWTP; listed as Arenicola marina) : 0

---

Please respond with reported zone of inhibition, test strain F for every item in the list.
Test system: Escherichia coli (ATCC 10536)
Experiment: Radial diffusion assay
Format: cell-based
Conditions: TCA precipitated culture supernatant, 100 x concentrated; 10 units = 1 mm diameter clear zone around the 3 mm sample well
Output spec: scalar in units, unitless text.

Value of measured zone of inhibition, test strain F for the entry Marinasin 2A: Arenicola marina antimicrobial polypeptide, amino acids 1 to 46 of SEQ ID NO: 12, expressed in Aspergillus oryzae (MNQITLLMLLVAVAVMATVTGQSLDDESDVENVSQPEQRGWCWQWT; listed as Arenicola marina) : 25

Value of measured zone of inhibition, test strain F for the entry Marinasin 1B: Arenicola marina antimicrobial polypeptide, amino acids 1 to 49 of SEQ ID NO: 8, expressed in Aspergillus oryzae (MKFFLPIMIALAFAAVAMATADTEPVEPEEELSIMLPFVEDDLLEKPIP; listed as Arenicola marina) : 25

Value of measured zone of inhibition, test strain F for the entry Marinasin 5: Arenicola marina antimicrobial polypeptide, amino acids 1 to 49 of SEQ ID NO: 24, expressed in Aspergillus oryzae (MKFLLPLMVVMAFAAVAMATADTEPVEREEGVFIMLPFVEDDMLEKPIL; listed as Arenicola marina) : 19

Value of measured zone of inhibition, test strain F for the entry Marinasin 4: Arenicola marina antimicrobial polypeptide, amino acids 1 to 45 of SEQ ID NO: 22, expressed in Aspergillus oryzae (MKPIILLMLLVAVVVMATVTAEPLDEESDVEIVSQPEQRIPCWTP; listed as Arenicola marina) : 0

---

System: Streptococcus hyointestinalis (ATCC 49169)
Experiment: Radial diffusion assay
Format: cell-based
Details: native culture supernatant of recombinant A. oryzae clone; 10 units = 1 mm diameter clear zone around the 3 mm sample well
readout-type: zone of inhibition, test strain C (units)
Output spec: scalar in units, unitless text.

Record Marinasin 6: Arenicola marina antimicrobial polypeptide, amino acids 1 to 44 of SEQ ID NO: 26, expressed in Aspergillus oryzae (MTTLLLMFGVAIVVLATVAAVPLQDDDVLDPSGLVEGETRGRSC; listed as Arenicola marina) ; system Streptococcus hyointestinalis (ATCC 49169); zone of inhibition, test strain C = 45

Record Marinasin 2A: Arenicola marina antimicrobial polypeptide, amino acids 1 to 46 of SEQ ID NO: 12, expressed in Aspergillus oryzae (MNQITLLMLLVAVAVMATVTGQSLDDESDVENVSQPEQRGWCWQWT; listed as Arenicola marina) ; system Streptococcus hyointestinalis (ATCC 49169); zone of inhibition, test strain C = 12

Record Marinasin 1B: Arenicola marina antimicrobial polypeptide, amino acids 1 to 49 of SEQ ID NO: 8, expressed in Aspergillus oryzae (MKFFLPIMIALAFAAVAMATADTEPVEPEEELSIMLPFVEDDLLEKPIP; listed as Arenicola marina) ; system Streptococcus hyointestinalis (ATCC 49169); zone of inhibition, test strain C = 10

Record Marinasin 4: Arenicola marina antimicrobial polypeptide, amino acids 1 to 45 of SEQ ID NO: 22, expressed in Aspergillus oryzae (MKPIILLMLLVAVVVMATVTAEPLDEESDVEIVSQPEQRIPCWTP; listed as Arenicola marina) ; system Streptococcus hyointestinalis (ATCC 49169); zone of inhibition, test strain C = 54

---

Please respond with reported zone of inhibition, test strain J for every item in the list.
System: Pseudomonas boreopolis (ATCC 15452)
Assay: Radial diffusion assay
Format: cell-based
Settings: TCA precipitated culture supernatant, 100 x concentrated; 10 units = 1 mm diameter clear zone around the 3 mm sample well
Output spec: scalar in units, unitless text.

Value of measured zone of inhibition, test strain J for the entry Marinasin 1B: Arenicola marina antimicrobial polypeptide, amino acids 1 to 49 of SEQ ID NO: 8, expressed in Aspergillus oryzae (MKFFLPIMIALAFAAVAMATADTEPVEPEEELSIMLPFVEDDLLEKPIP; listed as Arenicola marina) : 28

Value of measured zone of inhibition, test strain J for the entry Marinasin 4: Arenicola marina antimicrobial polypeptide, amino acids 1 to 45 of SEQ ID NO: 22, expressed in Aspergillus oryzae (MKPIILLMLLVAVVVMATVTAEPLDEESDVEIVSQPEQRIPCWTP; listed as Arenicola marina) : 0

Value of measured zone of inhibition, test strain J for the entry Marinasin 5: Arenicola marina antimicrobial polypeptide, amino acids 1 to 49 of SEQ ID NO: 24, expressed in Aspergillus oryzae (MKFLLPLMVVMAFAAVAMATADTEPVEREEGVFIMLPFVEDDMLEKPIL; listed as Arenicola marina) : 22

Value of measured zone of inhibition, test strain J for the entry Marinasin 2A: Arenicola marina antimicrobial polypeptide, amino acids 1 to 46 of SEQ ID NO: 12, expressed in Aspergillus oryzae (MNQITLLMLLVAVAVMATVTGQSLDDESDVENVSQPEQRGWCWQWT; listed as Arenicola marina) : 39
